Origin of values: the supplement of paper PMC9112550

- System: Escherichia coli TOP10
- METHOD_DESCRIPTION: shrunken log2 fold change of peptide-encoding DNA abundance (4.5 h post-induction vs induction); higher = less antimicrobial activity (less host growth inhibition)
- CONDITION_DESCRIPTION: time post-induction: 4.5 h; library: site-saturation at positions 5, 18, 19, 20
QUANTITY_KIND: shrunken log2 fold change
Form: value (number only, do not type unit).

Field request: shrunken log2 fold change | item: `RRIRLRPPRLPRPRPRPGNFPRP`
-0.122

Field request: shrunken log2 fold change | item: `RRIRPRPPRLPRPRPRPHYQPRP`
-0.417

Field request: shrunken log2 fold change | item: `RRIRCRPPRLPRPRPRPMYEPRP`
-0.264

Field request: shrunken log2 fold change | item: `RRIRWRPPRLPRPRPRPVFRPRP`
-0.153

Field request: shrunken log2 fold change | item: `RRIRERPPRLPRPRPRPKKDPRP`
-0.346

Field request: shrunken log2 fold change | item: `RRIRWRPPRLPRPRPRPHLVPRP`
0.392

Field request: shrunken log2 fold change | item: `RRIRCRPPRLPRPRPRPWGKPRP`
-0.102

Field request: shrunken log2 fold change | item: `RRIRSRPPRLPRPRPRPAHAPRP`
0.121

Field request: shrunken log2 fold change | item: `RRIRSRPPRLPRPRPRPRESPRP`
0.092

Field request: shrunken log2 fold change | item: `RRIRERPPRLPRPRPRPGLGPRP`
0.602

Field request: shrunken log2 fold change | item: `RRIRSRPPRLPRPRPRPHVGPRP`
-0.0134

Field request: shrunken log2 fold change | item: `RRIRQRPPRLPRPRPRPNHHPRP`
-0.864

Field request: shrunken log2 fold change | item: `RRIRHRPPRLPRPRPRPVEMPRP`
-0.0679

Field request: shrunken log2 fold change | item: `RRIRHRPPRLPRPRPRPEGLPRP`
0.00161

Field request: shrunken log2 fold change | item: `RRIRARPPRLPRPRPRPLYMPRP`
-0.48

Field request: shrunken log2 fold change | item: `RRIRPRPPRLPRPRPRPLWYPRP`
-0.496

Field request: shrunken log2 fold change | item: `RRIRQRPPRLPRPRPRPYNYPRP`
-1.44

Field request: shrunken log2 fold change | item: `RRIRRRPPRLPRPRPRPSACPRP`
0.195

Field request: shrunken log2 fold change | item: `RRIRERPPRLPRPRPRPYSPPRP`
-0.0774

Field request: shrunken log2 fold change | item: `RRIRVRPPRLPRPRPRPIDPPRP`
-0.0131

Field request: shrunken log2 fold change | item: `RRIRFRPPRLPRPRPRPMCMPRP`
-0.153

Field request: shrunken log2 fold change | item: `RRIRDRPPRLPRPRPRPTGFPRP`
0.0286

Field request: shrunken log2 fold change | item: `RRIRNRPPRLPRPRPRPTNPPRP`
-0.216

----------
- System: Escherichia coli TOP10
- METHOD_DESCRIPTION: shrunken log2 fold change of peptide-encoding DNA abundance (4.5 h post-induction vs induction); higher = less antimicrobial activity (less host growth inhibition)
- CONDITION_DESCRIPTION: time post-induction: 4.5 h; library: site-saturation at positions 5, 18, 19, 20
Binary call on shrunken log2 fold change: Fulfilled from -0.06 upward, Not fulfilled beneath that.

Does the sequence `RRIRNRPPRLPRPRPRPKIWPRP` have recorded shrunken log2 fold change that is -0.06 or more?
Fulfilled

Does the sequence `RRIRERPPRLPRPRPRPYPFPRP` have recorded shrunken log2 fold change that is -0.06 or more?
Not fulfilled

Does the sequence `RRIRARPPRLPRPRPRPSQRPRP` have recorded shrunken log2 fold change that is -0.06 or more?
Fulfilled

Does the sequence `RRIRKRPPRLPRPRPRPLKFPRP` have recorded shrunken log2 fold change that is -0.06 or more?
Not fulfilled

Does the sequence `RRIRRRPPRLPRPRPRPYTRPRP` have recorded shrunken log2 fold change that is -0.06 or more?
Fulfilled

Does the sequence `RRIRDRPPRLPRPRPRPRNTPRP` have recorded shrunken log2 fold change that is -0.06 or more?
Not fulfilled

Does the sequence `RRIRVRPPRLPRPRPRPTMCPRP` have recorded shrunken log2 fold change that is -0.06 or more?
Fulfilled

Does the sequence `RRIRSRPPRLPRPRPRPTRQPRP` have recorded shrunken log2 fold change that is -0.06 or more?
Fulfilled

Does the sequence `RRIRLRPPRLPRPRPRPMQPPRP` have recorded shrunken log2 fold change that is -0.06 or more?
Fulfilled

Does the sequence `RRIRGRPPRLPRPRPRPQRVPRP` have recorded shrunken log2 fold change that is -0.06 or more?
Fulfilled

Does the sequence `RRIRERPPRLPRPRPRPGECPRP` have recorded shrunken log2 fold change that is -0.06 or more?
Fulfilled

Does the sequence `RRIRTRPPRLPRPRPRPPMFPRP` have recorded shrunken log2 fold change that is -0.06 or more?
Not fulfilled

Does the sequence `RRIRKRPPRLPRPRPRPDVMPRP` have recorded shrunken log2 fold change that is -0.06 or more?
Fulfilled

Does the sequence `RRIRDRPPRLPRPRPRPWLCPRP` have recorded shrunken log2 fold change that is -0.06 or more?
Not fulfilled

Does the sequence `RRIRERPPRLPRPRPRPGQHPRP` have recorded shrunken log2 fold change that is -0.06 or more?
Not fulfilled

Does the sequence `RRIRERPPRLPRPRPRPYCLPRP` have recorded shrunken log2 fold change that is -0.06 or more?
Not fulfilled

Does the sequence `RRIRTRPPRLPRPRPRPDLYPRP` have recorded shrunken log2 fold change that is -0.06 or more?
Fulfilled

Does the sequence `RRIRWRPPRLPRPRPRPKYMPRP` have recorded shrunken log2 fold change that is -0.06 or more?
Not fulfilled

----------
- Tested on: Escherichia coli TOP10;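 note: peptides expressed intracellularly from a pBAD plasmid library in pooled LB shake-flask culture, induced with 0.3% L-arabinose, DNA abundance read by NGS, three biological replicates, DESeq2 with apeglm shrinkage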
- METHOD_DESCRIPTION: shrunken log2 fold change of peptide-encoding DNA abundance (4.5 h post-induction vs induction); higher = less antimicrobial activity (less host growth inhibition)
- CONDITION_DESCRIPTION: time post-induction: 4.5 h; library: site-saturation at positions 5, 18, 19, 20
Binary call on shrunken log2 fold change: 1.0 from -0.1 upward, 0.0 beneath that.

Does the sequence `RRIRERPPRLPRPRPRPRPGPRP` have recorded shrunken log2 fold change that is -0.1 or more?
1.0

Does the sequence `RRIRHRPPRLPRPRPRPEPPPRP` have recorded shrunken log2 fold change that is -0.1 or more?
1.0

Does the sequence `RRIRSRPPRLPRPRPRPEDPPRP` have recorded shrunken log2 fold change that is -0.1 or more?
1.0

Does the sequence `RRIRCRPPRLPRPRPRPTCIPRP` have recorded shrunken log2 fold change that is -0.1 or more?
0.0

Does the sequence `RRIRERPPRLPRPRPRPEASPRP` have recorded shrunken log2 fold change that is -0.1 or more?
1.0

Does the sequence `RRIRERPPRLPRPRPRPEFNPRP` have recorded shrunken log2 fold change that is -0.1 or more?
0.0

Does the sequence `RRIRRRPPRLPRPRPRPMWWPRP` have recorded shrunken log2 fold change that is -0.1 or more?
1.0

Does the sequence `RRIRSRPPRLPRPRPRPYFEPRP` have recorded shrunken log2 fold change that is -0.1 or more?
0.0

Does the sequence `RRIRWRPPRLPRPRPRPLYEPRP` have recorded shrunken log2 fold change that is -0.1 or more?
0.0

Does the sequence `RRIRLRPPRLPRPRPRPWFNPRP` have recorded shrunken log2 fold change that is -0.1 or more?
0.0

Does the sequence `RRIRMRPPRLPRPRPRPRYKPRP` have recorded shrunken log2 fold change that is -0.1 or more?
1.0

Does the sequence `RRIRDRPPRLPRPRPRPGAHPRP` have recorded shrunken log2 fold change that is -0.1 or more?
1.0

Does the sequence `RRIRTRPPRLPRPRPRPPEPPRP` have recorded shrunken log2 fold change that is -0.1 or more?
1.0

Does the sequence `RRIRWRPPRLPRPRPRPNMIPRP` have recorded shrunken log2 fold change that is -0.1 or more?
0.0

Does the sequence `RRIRARPPRLPRPRPRPSSLPRP` have recorded shrunken log2 fold change that is -0.1 or more?
1.0

Does the sequence `RRIRYRPPRLPRPRPRPIHEPRP` have recorded shrunken log2 fold change that is -0.1 or more?
1.0

Does the sequence `RRIRPRPPRLPRPRPRPCPLPRP` have recorded shrunken log2 fold change that is -0.1 or more?
0.0

Does the sequence `RRIRHRPPRLPRPRPRPWADPRP` have recorded shrunken log2 fold change that is -0.1 or more?
0.0

Does the sequence `RRIRCRPPRLPRPRPRPLHWPRP` have recorded shrunken log2 fold change that is -0.1 or more?
1.0

Does the sequence `RRIRKRPPRLPRPRPRPNMHPRP` have recorded shrunken log2 fold change that is -0.1 or more?
1.0

Does the sequence `RRIRVRPPRLPRPRPRPDGEPRP` have recorded shrunken log2 fold change that is -0.1 or more?
1.0

Does the sequence `RRIRRRPPRLPRPRPRPPTYPRP` have recorded shrunken log2 fold change that is -0.1 or more?
1.0

Does the sequence `RRIRARPPRLPRPRPRPTLNPRP` have recorded shrunken log2 fold change that is -0.1 or more?
1.0

Does the sequence `RRIRSRPPRLPRPRPRPEGWPRP` have recorded shrunken log2 fold change that is -0.1 or more?
1.0

Does the sequence `RRIRNRPPRLPRPRPRPIYHPRP` have recorded shrunken log2 fold change that is -0.1 or more?
0.0

Does the sequence `RRIRARPPRLPRPRPRPNSDPRP` have recorded shrunken log2 fold change that is -0.1 or more?
1.0
